Attribute: IC50
Biological target: recombinant human GST-Syk (Homo sapiens)
Construct: purchased Carna Biosciences 08-176
Test: Homogeneous Time-Resolved Fluorescence (HTRF) assay for the recombinant human Syk enzyme
Assay type: biochemical
Conditions: recombinant human GST-Syk 5 pM, ATP 25 μM, read-out: IC50

Compound: Cc1cc(Nc2cc(C(F)F)ccn2)nc(-c2ccc([C@](C)(O)[C@H]3CC[C@H](C(=O)O[C@H]4CC[C@H](N)CC4)CC3)nc2)c1 [Example 1-23]
IC50: 1.6 nM
//
Compound: Cc1cc(Nc2cc(C(F)F)ccn2)nc(-c2ccc([C@](C)(O)[C@H]3CC[C@H](C(=O)OCC(C)(C)O)CC3)nc2)c1 [Example 1-1]
IC50: 8.1 nM
//
Compound: Cc1cc(Nc2cc(C(F)F)ccn2)nc(-c2ccc([C@](C)(O)[C@H]3CC[C@H](C(=O)OC[C@H](O)CO)CC3)nc2)c1 [Example 1-16]
IC50: 2.3 nM
//
Compound: CSCCCOC(=O)[C@H]1CC[C@H]([C@@](C)(O)c2ccc(-c3cc(C)cc(Nc4cc(C(F)F)ccn4)n3)cn2)CC1 [Example 1-9]
IC50: 27.7 nM
//
Compound: CCOCCOCCOC(=O)OC(OC(=O)[C@H]1CC[C@H]([C@@](C)(O)c2ccc(-c3cc(C)cc(Nc4cc(C(F)F)ccn4)n3)cn2)CC1)C(C)C (stereo partly drawn) [Example 2-16]
IC50: 48.4 nM
//
Compound: CCOC(=O)C[N+](C)(C)COC(=O)[C@H]1CC[C@H]([C@@](C)(O)c2ccc(-c3cc(C)cc(Nc4cc(C(F)F)ccn4)n3)cn2)CC1 [Example 5-19]
IC50: 0.8 nM
//
Compound: Cc1cc(Nc2cc(C(F)F)ccn2)nc(-c2ccc([C@](C)(O)[C@H]3CC[C@H](C(=O)OCOC(=O)CCO)CC3)nc2)c1 [Example 3-9]
IC50: 4.8 nM
//
Compound: Cc1cc(Nc2cc(C(F)F)ccn2)nc(-c2ccc([C@](C)(O)[C@H]3CC[C@H](C(=O)OCOC(=O)CO)CC3)nc2)c1 [Example 3-5]
IC50: < 0.5 nM
//
Compound: Cc1cc(Nc2cc(C(F)F)ccn2)nc(-c2ccc([C@](C)(O)[C@H]3CC[C@H](C(=O)OCOC(=O)OCCOCCOCCOCCO)CC3)nc2)c1 [Example 2-4]
IC50: 5.3 nM
//
Compound: Cc1cc(Nc2cc(C(F)F)ccn2)nc(-c2ccc([C@](C)(O)[C@H]3CC[C@H](C(=O)OC(C)OC(=O)c4cnn(C)c4)CC3)nc2)c1 (single isomer, unassigned) [Example 3-2b]
IC50: 22.4 nM
//
Compound: Cc1cc(Nc2cc(C(F)F)ccn2)nc(-c2ccc([C@](C)(O)[C@H]3CC[C@H](C(=O)OCOC(=O)OCCS(C)(=O)=O)CC3)nc2)c1 [Example 7-7]
IC50: 4.5 nM
//
Compound: COc1ccc(OC(=O)[C@H]2CC[C@H]([C@@](C)(O)c3ccc(-c4cc(C)cc(Nc5cc(C(F)F)ccn5)n4)cn3)CC2)cc1 [Example 1-28]
IC50: 7.2 nM
